Each entry below lists one item and its recorded soluble fraction (log2) value.
# METHOD NOTES: soluble fraction after stress (log2 fold change); higher = more stays soluble; pooled small domains, quantitative proteomics
# TEST CONTEXT: stress: 50 degC
Just the number.

Worked examples, 7 sequences total:
HMSPFYALDEVDSFLDGVNVERLAALIARQAEQAQFLVVSHRRPMIGASTRTIGVTQARGAHTQVVGLP ... -0.25
HMKGMIKVASMSLGADLGLYSRHLKYLGIVHRVVEESGGQSVYIQKLNDLHTAKESLELYLKNELKI ... -1.19
HMNLQGIISQKAIVTQTIEPYETGVAKLNGEEWTAMSKDETRIEAGKLVEVVAIEGVKLIVKEVS ... -0.0794
HMSGSILVQVSATDLNIRKGPGTNYGTTGKYTGKGTFTIVETRSGQGSNAGWGKLKSGAGWISLDYAKR ... -1.38
HMYKIDFAEGDRVIIKGGAFSGLRATVVSLHPEKGMAKIKVYMFGDRETLVDIEVSQLEKDK ... -0.348
HMDTVSYSTLLRDIDAKEIKQLDLVPGRREVRVQYNDGRRVTVPVFANDNQILRAAESSGTPLTVV ... 0.183
HMSRKERERSQHRRDILAAGEKIFAQKGYFNATIEEIAREAEFSVGTIYNFFSNKETLYQEIIRSI ... -0.298

# input for lookup
INPUT: Entry under review: HMDAISYTQFMEEAKQGRINKVEVQGRTLMVTPTDGKAYSLTSPGDLWMTTDLMKYGVNVYGAE . Reported soluble fraction (log2)?
OUTPUT: -0.00324

* * *

# METHOD NOTES: soluble fraction after stress (log2 fold change); higher = more stays soluble; pooled small domains, quantitative proteomics
# TEST CONTEXT: stress: 50 degC
Cut-off -0.2 on soluble fraction (log2), inclusive. At or above means 1 (yes); below means 0 (no).

Solved cases below.
HMGPEAFPVPYVVDIELDRAIYVIEQSGFIVGQKLEANDNNVPRGFVISQNPPAGTKLGPESIVDLVVSS ... 0 (no)
HMREWPLWEIFIRGQHGLNHRHVGSLHAPDAAMAIGNARDVYTRRNEGVSIWAVRSADVVASVPSE ... 0 (no)
HMSQSMEVLYTDLTDKDAAAIVEKLEEEKIPYQLEDQGTTILVPPGVKYTTRLKLAAEDLPKG ... 1 (yes)

INPUT: Identify whether the reported soluble fraction (log2) of the following sequence is -0.2 or greater: HMKEQYDLNDREQQFISLVANGLNNKEIAETLFLSEGTVRNYLSNLLDKLGLRDRTQLAIFFYQHL
OUTPUT: 0 (no)

INPUT: Would you mind doing HMDGRIRFRHAALHDPDVAARLHDYLTTSLPGVRSARVNSQTGSLLLEYDPEVLDRSTLLDLAARAESLL as well?
OUTPUT: 0 (no)

INPUT: Would you mind doing HMIKRETNDNPVDPASLSLGDRVKILTLNQNGEIISLPDEKGLLQVQVGIMKIGVNVSDIMLI as well?
OUTPUT: 1 (yes)

INPUT: Record: HMDLIFQKGDLVFSTEHNQRGIFYEYLEQGQAKISIEKQFFVVAARRLQLLTKREVLYPAGYDLDQLFV
OUTPUT: 1 (yes)

INPUT: Another: HMIKISDYLSEEDLNFIKEMEKIYPYFDFDSEGNLILTKSIDELKDKYGFDEAFVSRLDTVLNSR
OUTPUT: 1 (yes)
